ASSAYED_TARGET: androgen receptor (adenovirus AdEasy+rAR in COS-7 cells) (Rattus norvegicus)
Construct: expressed in transfected cells
ASSAY_TEXT: COS-7 Whole-Cell Androgen Receptor Binding Assay, Adenovirus Transduction
ASSAY_CONTEXT: COS binding; 3000 nM unless otherwise noted
// label = TRUE if % Inhibition is not less than 80%, otherwise FALSE

Please review the entries below; each comes with its answer.
Task item: Does % Inhibition meet or surpass 80% for CCS(=O)(=O)CC(C)(O)c1cc2cc([N+](=O)[O-])c(C(F)(F)F)cc2[nH]1 (stereo not drawn) ?
Reply: FALSE

Task item: Cool, now CC(O)(C[S+]([O-])Cc1ccccc1)c1cc2cc([N+](=O)[O-])c(C(F)(F)F)cc2[nH]1 (mixture of isomers)
Reply: FALSE

Task item: Cool, now `CCS(=O)(=O)C[C@](C)(O)c1cc2cc([N+](=O)[O-])c(C(F)(F)F)cc2[nH]1`
Reply: FALSE

Task item: Cool, now CC(O)(CSCC(F)(F)F)c1cc2cc([N+](=O)[O-])c(C(F)(F)F)cc2[nH]1 (stereo not drawn) [compound 201]
Reply: TRUE

Task item: Cool, now COc1ccc(S(=O)(=O)CC(C)(O)c2cc3cc(Cl)c(C(F)(F)F)cc3[nH]2)cc1 (racemic)
Reply: FALSE

Task item: Cool, now CCSCC(C)(O)c1cc2cc(Cl)ccc2n1S(C)(=O)=O (racemic)
Reply: FALSE

Task item: Cool, now C[S+]([O-])CCC(C)(O)c1cc2cc([N+](=O)[O-])c(C(F)(F)F)cc2[nH]1 (mixture of isomers)
Reply: FALSE

Task item: Cool, now CC(O)(CS(C)(=O)=O)c1cc2cc([N+](=O)[O-])c(C(F)(F)F)cc2[nH]1 (stereo not drawn) [compound 140]
Reply: FALSE

Others:
Task item: Does % Inhibition meet or surpass 80% for CC(O)(CS(C)(=O)=O)c1cc2cc([N+](=O)[O-])c(C(F)(F)F)cc2[nH]1 (stereo not drawn) [compound 147] ?
Reply: FALSE

Task item: Cool, now CCSCC(C)(O)c1cc2cc(F)c(Cl)cc2[nH]1 (racemic)
Reply: FALSE

Task item: Cool, now CSCC(C)(O)c1cc2cc([N+](=O)[O-])c(C(F)(F)F)cc2[nH]1 (single isomer, unassigned) [compound 145]
Reply: TRUE

Task item: Cool, now CCS(=O)(=O)CC(C)(O)c1[nH]c2cc(C(F)(F)F)c(C#N)cc2c1C (single isomer, unassigned)
Reply: TRUE

Task item: Cool, now COc1ccc(SCC(C)(O)c2cc3cc(Cl)c(C(F)(F)F)cc3n2S(C)(=O)=O)cc1 (racemic)
Reply: FALSE

Task item: Cool, now CC(O)(CSCC(F)(F)F)c1cc2cc([N+](=O)[O-])c(C(F)(F)F)cc2[nH]1 (stereo not drawn) [compound 171]
Reply: TRUE

Task item: Cool, now CCSCC(C)(O)c1cc2cc([N+](=O)[O-])c(C(F)(F)F)cc2[nH]1 (racemic)
Reply: TRUE

---

For each entry below, report its % Activity value.
ASSAYED_TARGET: androgen receptor (adenovirus AdEasy+rAR in L929 cells) (Rattus norvegicus)
Construct: expressed in transfected cells
Sequence (P15207 1-902): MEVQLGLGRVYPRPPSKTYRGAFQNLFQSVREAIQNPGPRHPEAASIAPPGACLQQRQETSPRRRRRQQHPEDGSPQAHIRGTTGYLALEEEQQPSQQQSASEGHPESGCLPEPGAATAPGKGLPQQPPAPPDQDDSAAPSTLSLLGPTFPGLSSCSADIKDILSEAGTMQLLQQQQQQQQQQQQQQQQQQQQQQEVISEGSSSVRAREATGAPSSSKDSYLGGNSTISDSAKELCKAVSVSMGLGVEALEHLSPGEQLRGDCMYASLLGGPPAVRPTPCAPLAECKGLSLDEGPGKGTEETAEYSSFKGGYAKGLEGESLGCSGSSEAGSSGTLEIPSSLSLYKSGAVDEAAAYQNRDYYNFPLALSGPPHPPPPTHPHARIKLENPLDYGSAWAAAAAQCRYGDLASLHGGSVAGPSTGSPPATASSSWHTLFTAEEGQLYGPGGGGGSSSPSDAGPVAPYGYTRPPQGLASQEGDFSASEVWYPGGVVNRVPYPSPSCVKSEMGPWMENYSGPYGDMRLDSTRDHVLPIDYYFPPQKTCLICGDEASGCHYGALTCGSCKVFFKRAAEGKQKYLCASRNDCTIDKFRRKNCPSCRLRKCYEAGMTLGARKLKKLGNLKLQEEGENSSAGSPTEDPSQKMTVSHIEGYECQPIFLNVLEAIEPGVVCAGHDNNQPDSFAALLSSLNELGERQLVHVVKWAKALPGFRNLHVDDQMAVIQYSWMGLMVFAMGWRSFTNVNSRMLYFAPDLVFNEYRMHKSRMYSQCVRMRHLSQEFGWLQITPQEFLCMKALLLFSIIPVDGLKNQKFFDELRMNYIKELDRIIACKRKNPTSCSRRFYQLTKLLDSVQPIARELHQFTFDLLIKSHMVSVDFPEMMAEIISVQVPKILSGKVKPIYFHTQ
ASSAY_TEXT: L929 Androgen Receptor Functional Assay, Adenovirus Transduction
Assay type: cell-based
ASSAY_CONTEXT: L929 agonist testing; 3000 nM; 3 µM
Numbers only, in %.

Task item: What % Activity value was documented for this compound, CSCC(C)(O)c1cc2cc([N+](=O)[O-])c(C(F)(F)F)cc2[nH]1 (single isomer, unassigned) [compound 144] ?
Reply: 0

Task item: Cool, now CC(O)(CSCC(F)(F)F)c1cc2cc([N+](=O)[O-])c(C(F)(F)F)cc2[nH]1 (stereo not shown) [compound 171]
Reply: 11

Task item: Cool, now CCSCC(C)(O)c1cc2cc([N+](=O)[O-])c(C(F)(F)F)cc2n1C (racemic) [compound 165]
Reply: 1

Give % Activity for each of the items listed below.
1. CSCC(C)(O)c1cc2cc([N+](=O)[O-])c(C(F)(F)F)cc2[nH]1 (single isomer, unassigned) [compound 145]
2. CCSCC(C)(O)c1cc2cc([N+](=O)[O-])c(C(F)(F)F)cc2[nH]1 (single isomer, unassigned) [compound 149]
3. CCSCC(C)(O)c1[nH]c2cc(C(F)(F)F)c(C#N)cc2c1C (stereo not shown) [compound 219]
4. CCSCC(C)(O)c1[nH]c2cc(C(F)(F)F)c(C#N)cc2c1C (single isomer, unassigned) [Compound #234]

Reply:
[1, 2, "−3", "−1"]
